Biological target: N-terminal Xaa-Pro-Lys N-methyltransferase 1 (Homo sapiens) (UniProt Q9BV86)
Sequence (Q9BV86 whole entry, looked up): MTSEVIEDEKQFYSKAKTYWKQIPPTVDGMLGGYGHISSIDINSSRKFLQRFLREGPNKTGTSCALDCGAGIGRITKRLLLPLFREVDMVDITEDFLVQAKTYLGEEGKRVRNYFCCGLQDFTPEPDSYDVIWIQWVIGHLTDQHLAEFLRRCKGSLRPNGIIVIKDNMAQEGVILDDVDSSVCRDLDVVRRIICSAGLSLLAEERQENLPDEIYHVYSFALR
Experiment: Primary qHTS for Inhibitors of N-terminal methyltransferase 1 (NTMT1): MTaseGlo Assay; note: nearly all actives have a fitted effect of over 65% in size
Details: NTMT1 MTase-Glo SAH luminescence, purified enzyme; series mostly up to 114 µM
Hit rate of the full screen: of about 59,000 compounds, about 1,500 (2.5%) were called active. Inconclusive results (about 10%) are left out. Calls come from the whole dose curve; as a rule, active = well fitted inhibition curve with a large enough effect; inconclusive = small, poorly fitted or top-dose-only effect; inactive = flat fitted curve, though single readings scatter. Only a selection was taken, and actives are over-represented in it overall.
Write down the outcome that applies. Available outcomes: 1 (yes) (active), 0 (no) (inactive)

Examples with answers:
COc1ccc(Cn2ccn(CC(=O)Nc3cc(C)ccc3C)c(=O)c2=O)cc1 : 1 (yes)
Cc1ccc(C)c(NC(=O)Cn2ccn(-c3ccc(F)cc3)c(=O)c2=O)c1 : 0 (no)
Cc1ccc(N[S+](=O)([O-])c2cc3c(cc2N[C@@H](C)CO)NC(=O)CC3)cc1N[C@@H](C)CO : 0 (no)
N#Cc1ccc(OC2=NS(=O)(=O)c3ccccc32)cc1 : 0 (no)
CC(=O)c1cccc(-c2ccc(-c3nc4ccccc4c(=O)[nH]3)o2)c1 : 0 (no)
COCC1CCCN(C(=O)CC(c2ccc3c(c2)OCO3)c2c(O)cc(OC)cc2OC)C1 (centres undefined) : 0 (no)
Cc1ccc(C(=O)Nc2ccc(S(=O)(=O)Nc3nccs3)cc2)cc1C : 0 (no)
O=C(Nc1nc(-c2ccccc2)cs1)c1ccccc1-n1cnnn1 : 0 (no)

Switching to the query record.
Check the results log: what was the call for C=Cc1c(C)c2cc3nc(cc4[nH]c(cc5nc(cc1[nH]2)C(C)=C5CCC(=O)O)c(CCC(=O)OC)c4C)[C@@]1(C)C3=CC=C(C(=O)OC)[C@H]1C(=O)OC ?
1 (yes)
